assayed.target: T1, human C5 (human, UniProt P01031 19-673; P01031 678-1676, Beta and alpha chains are disulfide-linked and the protein is glycosylated.)
T1 construct: Either in-house recombinant C5 or plasma derived C5 (CALBIOCHEM) was used; also called recombinant human C5; plasma derived human C5
assay: Biacore, captured antibody, pH 7.4, 37 C;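 note: biacore binding response of anti-C5 antibody light chain variants captured on chip with human C5 injected, ACES running buffer containing 1.2 mM CaCl₂, parent light chain antibody set to 100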

{"columns": ["binder", "% binding (parent = 100)"],
 "data": [
  ["CFP0017 17L 32N (antibody, V domains shown) VH: QVQLVQSGAEVKKPGSSVKVSCKASGGTFSSYAISWVRQAPGQGLEWMGGIIPIFGTANYAQKFQGRVTITADESTSTAYMELSSLRSEDTAVYYCARGGWWGGALDYWGQGTLVTVSS VL: DIQMTQSPSSLSASVGDRVTITCRASQSIEDNLAWYQQKPGKAPKLLIYHASSLQSGVPSRFSGSGSGTDFTLTISSLQPEDFATYYCQQSDSYPLTFGQGTKVEIK", "27%"],
  ["CFP0021 21L 30S (antibody, V domains shown) VH: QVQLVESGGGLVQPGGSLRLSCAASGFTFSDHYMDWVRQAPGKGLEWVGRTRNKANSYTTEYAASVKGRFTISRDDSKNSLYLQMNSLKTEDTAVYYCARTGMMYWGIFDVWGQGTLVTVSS VL: DIQMTQSPSSLSASVGDRVTITCRASQSISDDLAWYQQKPGKAPKLLIYHASTLQSGVPSRFSGSGSGTDFTLTISSLQPEDFATYYCQQHDSYPLTFGQGTKVEIK", "76.7%"],
  ["CFP0018 18L 30Y (antibody, V domains shown) VH: QVQLVQSGAEVKKPGSSVKVSCKASGGTFSSYAISWVRQAPGQGLEWMGGIIPIFGTANYAQKFQGRVTITADESTSTAYMELSSLRSEDTAVYYCARQLYGYYELDIWGQGTLVTVSS VL: DIQMTQSPSSLSASVGDRVTITCRASQSIYDDLAWYQQKPGKAPKLLIYEASSLQSGVPSRFSGSGSGTDFTLTISSLQPEDFATYYCQQYNSYPLTFGQGTKVEIK", "82.4%"]
]}
